Known IC50 of a selection of compounds
# System: HeLa
# Method notes: Cell proliferation assay (cell-titer blue)
# Type: cell-based
# Condition label: cell viability, cell-titer blue, up to 48 hours
Assay readout: IC50 (nM)

Cn1ccc2c[c]([Au-][P+](c3ccccc3-c3ccccc3)(C3CCCCC3)C3CCCCC3)ccc21	460
CC(C)(C)OC(=O)n1ccc2c[c]([Au-][P+](c3ccccc3)(c3ccccc3)c3ccccc3)ccc21	2500
CC(C)(C)C(=O)OCn1ccc2c[c]([Au-][P+](c3ccccc3-c3ccccc3)(C3CCCCC3)C3CCCCC3)ccc21	660
CC(C)(C)OC(=O)n1ccc2c[c]([Au-][P+](C3CCCCC3)(C3CCCCC3)C3CCCCC3)ccc21	16200
CC(C)(C)OC(=O)n1ccc2c[c]([Au-][P+](c3ccccc3-c3ccccc3)(C3CCCCC3)C3CCCCC3)ccc21	2400

* * *

# System: MCF-7
# Method notes: Cell proliferation assay (cell-titer blue)
# Format: cell-based
# Condition label: cell viability, up to 48 hours
pIC50: −log10 of the molar value.
Assay readout: pIC50

CC(C)(C)C(=O)OCn1ccc2c[c]([Au-][P+](c3ccccc3-c3ccccc3)(C3CCCCC3)C3CCCCC3)ccc21	6.02
CC(C)(C)OC(=O)n1ccc2c[c]([Au-][P+](c3ccccc3)(c3ccccc3)c3ccccc3)ccc21	4.79
Cn1ccc2c[c]([Au-][P+](c3ccccc3-c3ccccc3)(C3CCCCC3)C3CCCCC3)ccc21	5.49
CC(C)(C)OC(=O)n1ccc2c[c]([Au-][P+](C3CCCCC3)(C3CCCCC3)C3CCCCC3)ccc21	4.46
CC(C)(C)OC(=O)n1ccc2c[c]([Au-][P+](c3ccccc3-c3ccccc3)(C3CCCCC3)C3CCCCC3)ccc21	5.64
